Hey, just so you know, these numbers are from patent US7592336B2.

Measured IC50 of individual entries
biological target: HCV NS3/4A protease complex, BMS strain (UniProt P27958, species not given/STRAIN_BMS); construct: said of H77 and J4L6S, not expressly of BMS; fused on or other part: A three-lysine solubilising tail at the NS4A C-terminus and purification on Ni-NTA are described for the H77 and J4L6S constructs; experiment: FRET peptide assay to monitor HCV NS3/4A proteolytic activity (BMS strain); type: biochemical, HCV genotype 1a; settings: NS3/4A BMS strain; read-out: Activity Range (IC50)
Sequence (P27958 1027-1657, change not shown, one chain of several): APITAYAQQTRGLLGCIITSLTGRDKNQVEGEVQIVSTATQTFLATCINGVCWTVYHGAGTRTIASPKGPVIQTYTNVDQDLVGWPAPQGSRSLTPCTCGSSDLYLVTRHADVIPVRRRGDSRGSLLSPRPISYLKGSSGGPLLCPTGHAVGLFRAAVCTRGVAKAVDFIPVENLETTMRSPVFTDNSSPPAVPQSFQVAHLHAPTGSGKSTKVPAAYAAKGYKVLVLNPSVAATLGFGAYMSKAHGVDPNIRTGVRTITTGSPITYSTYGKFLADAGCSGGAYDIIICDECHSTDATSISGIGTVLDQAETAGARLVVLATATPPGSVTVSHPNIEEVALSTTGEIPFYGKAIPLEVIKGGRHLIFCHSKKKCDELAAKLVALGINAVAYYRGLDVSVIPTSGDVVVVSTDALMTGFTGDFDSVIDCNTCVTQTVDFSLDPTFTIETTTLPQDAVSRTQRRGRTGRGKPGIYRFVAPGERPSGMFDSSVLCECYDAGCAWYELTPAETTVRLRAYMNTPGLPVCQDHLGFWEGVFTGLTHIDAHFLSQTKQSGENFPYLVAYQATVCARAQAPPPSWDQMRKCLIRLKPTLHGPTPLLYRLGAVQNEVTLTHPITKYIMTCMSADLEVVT
endpoint: IC50

>  <compound>
C=C[C@@H]1C[C@]1(NC(=O)[C@@H]1C[C@@](O)(c2cccc(-c3ccc(OC)cc3)c2)CN1C(=O)[C@@H](NC(=O)OC(C)(C)C)C(C)(C)C)C(=O)NS(=O)(=O)C1CC1 [Compound 8]

>  <endpoint>
IC50

>  <reported-result>
100 to 1000 nM

$$$$
>  <compound>
C=C[C@@H]1C[C@]1(NC(=O)[C@@H]1C[C@@](O)(c2cccc(Cl)c2)CN1C(=O)[C@@H](NC(=O)OC(C)(C)C)C(C)(C)C)C(=O)NS(=O)(=O)C1CC1 [Compound 12]

>  <endpoint>
IC50

>  <reported-result>
1 to 100 nM

$$$$
>  <compound>
C=C[C@@H]1C[C@]1(NC(=O)[C@@H]1C[C@@](O)(c2ccccc2)CN1C(=O)[C@@H](NC(=O)OC(C)(C)C)C(C)(C)C)C(=O)NS(=O)(=O)C1CC1 [Compound 4]

>  <endpoint>
IC50

>  <reported-result>
100 to 1000 nM

$$$$
>  <compound>
C=C[C@@H]1C[C@]1(NC(=O)[C@@H]1C[C@@](O)(c2cccc(C)c2)CN1C(=O)[C@@H](NC(=O)OC(C)(C)C)C(C)(C)C)C(=O)NS(=O)(=O)C1CC1 [Compound 13]

>  <endpoint>
IC50

>  <reported-result>
1 to 100 nM

$$$$
>  <compound>
C=C[C@@H]1C[C@]1(NC(=O)[C@@H]1C[C@@](O)(c2ccc(F)cc2)CN1C(=O)[C@@H](NC(=O)OC(C)(C)C)C(C)(C)C)C(=O)NS(=O)(=O)C1CC1 [Compound 6]

>  <endpoint>
IC50

>  <reported-result>
100 to 1000 nM

$$$$
